Assay: A CellTox Green Cytotoxicity Assay to monitor cytotoxicity in HEK293 cells - 32 hour (AID 1224881); further: nearly all actives have a fitted effect of over 40% in size
Conditions: CellTox Green fluorescence; series mostly up to 76.8 µM
Records with an inconclusive call do not appear. Activity calls are given as the source filed them. The call rests on the fitted dose curve; in most records, active means well fitted activation curve with a large enough effect in the repeat runs; inconclusive means weak or mixed curves; inactive means flat fitted curve, though single readings scatter.
Your reply should match one of these outcome classes. YES (active), NO (inactive)

Answered cases to consult:
- CC(C)=CCCC(C)CCOC(=O)C(C)C (stereo not given): NO
- CCCCCCCCCCCCCC[n+]1ccccc1: YES
- C1CC(COCC2CO2)CCC1COCC1CO1 (stereo not given): NO
- CCC1CCCCC1: NO

Let's switch to this compound now.
Identify the outcome logged in this assay for the compound shown: CC(C)(c1cc(Br)c(O)c(Br)c1)c1cc(Br)c(O)c(Br)c1
NO
